Reference source: patent US20080221116A1

- system_tested: α1b-AR (Homo sapiens, UniProt P35368)
- Construct: expressed in transfected cells; host or cells: COS-7 cells (African Green monkey kidney), membranes
- Sequence (P35368 1-520): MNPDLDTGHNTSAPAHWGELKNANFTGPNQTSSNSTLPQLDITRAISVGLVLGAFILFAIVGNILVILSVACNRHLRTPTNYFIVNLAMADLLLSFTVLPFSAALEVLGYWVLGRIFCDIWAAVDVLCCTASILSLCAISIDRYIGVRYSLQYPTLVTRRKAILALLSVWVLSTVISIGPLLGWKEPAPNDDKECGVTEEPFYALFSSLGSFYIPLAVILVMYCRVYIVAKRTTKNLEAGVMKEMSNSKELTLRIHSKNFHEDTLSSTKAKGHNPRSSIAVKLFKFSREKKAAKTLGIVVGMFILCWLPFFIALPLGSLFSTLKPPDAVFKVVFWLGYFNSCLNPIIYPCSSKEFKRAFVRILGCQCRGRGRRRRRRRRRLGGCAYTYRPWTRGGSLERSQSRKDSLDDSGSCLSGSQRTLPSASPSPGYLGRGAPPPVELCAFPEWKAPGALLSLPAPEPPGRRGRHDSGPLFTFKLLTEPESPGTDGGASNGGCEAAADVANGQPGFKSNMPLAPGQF
- method_summary: α1-Adrenergic Receptor Binding Assay, 125I-HEAT radio-ligand binding, transfected COS-7 cell membranes, α1b subtype
- measurement_context: individual values, COS-7 membranes, read-out: Alpha 1 Ki α1b (2) Individual Values
measured_property: Ki (nM)

See these solved cases before continuing.
>  <molecule>
CC(C)Oc1ccccc1N1CCN(CC2CC(CN3CCc4ccc(NCc5c(F)cccc5F)cc43)=NO2)CC1 (stereo not drawn)

>  <system_tested>
α1b-AR (Homo sapiens, UniProt P35368)

>  <Ki / nM>
172

$$$$
>  <molecule>
CC(C)Oc1ccccc1N1CCN(CC2CC(C(=O)N3CCN(c4ccccc4OC(C)C)CC3)=NO2)CC1 (stereo not drawn)

>  <system_tested>
α1b-AR (Homo sapiens, UniProt P35368)

>  <Ki / nM>
187

$$$$
>  <molecule>
CC(C)Oc1ccccc1N1CCN(CC2CC(CN3CCc4ccccc43)=NO2)CC1 (stereo not drawn)

>  <system_tested>
α1b-AR (Homo sapiens, UniProt P35368)

>  <Ki / nM>
101

$$$$
>  <molecule>
COc1cccc(CNc2ccc3c(c2)N(CC2=NOC(CN4CCN(c5ccccc5OC(C)C)CC4)C2)CC3)c1 (stereo not drawn)

>  <system_tested>
α1b-AR (Homo sapiens, UniProt P35368)

>  <Ki / nM>
195

$$$$
>  <molecule>
CC(C)Oc1ccccc1N1CCN(CC2CC(C(=O)N3CCOCC3)=NO2)CC1 (single isomer, unassigned) [Compound 45]

>  <system_tested>
α1b-AR (Homo sapiens, UniProt P35368)

>  <Ki / nM>
1060

$$$$

I. CC(C)Oc1ccccc1N1CCN(CC2CC(C(=O)N3CCC(Oc4ccccc4)CC3)=NO2)CC1 (single isomer, unassigned)
II. CC(C)Oc1ccccc1N1CCN(CC2CC(CN3CCc4ccc(NCc5ccccc5F)cc43)=NO2)CC1 (stereo not drawn)
III. Cc1ccc2c(c1)CCN2C(=O)C1=NOC(CN2CCN(c3ccccc3OC(C)C)CC2)C1 (stereo not drawn)
IV. CC(C)Oc1ccccc1N1CCN(CC2CC(C(=O)N3CCc4ccccc43)=NO2)CC1 (single isomer, unassigned)
V. CC(C)Oc1ccccc1N1CCN(CC2CC(C(=O)N3CC(C)(C)c4cc(Br)ccc43)=NO2)CC1 (single isomer, unassigned) [Compound 43]
Task item: Hey, can you sort those molecules up there by Ki, smallest first? Order the labels as requested and give them as your answer.
Reply: IV, III, II, I, V
(IV: 37 nM, III: 71 nM, II: 304 nM, I: 639 nM, V: 1080 nM)
